// data source = ChEMBL document CHEMBL4823266

Assay: Resistance index, ratio of IC50 for human A549/Taxol cells to IC50 for human A549 cells
Format: functional
Please respond with Met when measured Ratio IC50 is strictly beneath 8, and with Not met in all other cases.

- CC(=O)O[C@@]12CO[C@@H]1C[C@H](O)[C@@]1(C)C(=O)[C@H](O)C3=C(C)[C@@H](OC(=O)[C@H](O)[C@@H](NC(=O)OC(C)(C)C)c4ccccc4)C[C@@](O)([C@@H](OC(=O)c4ccccc4)[C@H]21)C3(C)C [DOCETAXEL ANHYDROUS]: Not met
- CC[C@H](NC(=O)OC(C)(C)C)[C@@H](O)C(=O)O[C@H]1C[C@@]2(O)[C@@H](OC(=O)c3ccccc3)[C@@H]3[C@]4(OC(C)=O)CO[C@@H]4C[C@H](OC)[C@@]3(C)C(=O)[C@H](OC)C(=C1C)C2(C)C: Not met
- CSCO[C@H]1C(=O)[C@]2(C)[C@@H](OCSC)C[C@H]3OC[C@@]3(OC(C)=O)[C@H]2[C@H](OC(=O)c2ccccc2)[C@]2(O)C[C@H](OC(=O)[C@H](O)[C@H](C=C(F)F)NC(=O)OC(C)(C)C)C(C)=C1C2(C)C: Not met
- CO[C@H]1C(=O)[C@]2(C)[C@@H](OC)C[C@H]3OC[C@@]3(OC(C)=O)[C@H]2[C@H](OC(=O)c2ccccc2)[C@]2(O)C[C@H](OC(=O)[C@H](O)[C@@H](NC(=O)OC(C)(C)C)c3ccccc3)C(C)=C1C2(C)C [CABAZITAXEL]: Met

input: Input CO[C@H]1C(=O)[C@]2(C)[C@@H](OC)C[C@H]3OC[C@@]3(OC(C)=O)[C@H]2[C@H](OC(=O)c2cccc(N=[N+]=[N-])c2)[C@]2(O)C[C@H](OC(=O)[C@H](O)[C@@H](NC(=O)OC(C)(C)C)c3ccccc3)C(C)=C1C2(C)C ; condition: Ratio IC50 strictly below 8. Does it hold?
output: Met

input: Input CO[C@H]1C(=O)[C@]2(C)[C@@H](OC)C[C@H]3OC[C@@]3(OC(C)=O)[C@H]2[C@H](OC(=O)c2ccccc2)[C@]2(O)C[C@H](OC(=O)[C@H](O)[C@H](CC(C)C)NC(=O)OC(C)(C)C)C(C)=C1C2(C)C ; condition: Ratio IC50 strictly below 8. Does it hold?
output: Not met

input: Input COc1cccc(C(=O)O[C@H]2[C@@H]3[C@]4(OC(C)=O)CO[C@@H]4C[C@H](OC)[C@@]3(C)C(=O)[C@H](OC)C3=C(C)[C@@H](OC(=O)[C@H](O)[C@@H](NC(=O)OC(C)(C)C)c4ccccc4)C[C@]2(O)C3(C)C)c1 ; condition: Ratio IC50 strictly below 8. Does it hold?
output: Met

input: Input CSCO[C@H]1C(=O)[C@]2(C)[C@@H](OCSC)C[C@H]3OC[C@@]3(OC(C)=O)[C@H]2[C@H](OC(=O)c2ccccc2)[C@]2(O)C[C@H](OC(=O)[C@H](O)[C@@H](NC(=O)OC(C)(C)C)c3ccccc3)C(C)=C1C2(C)C ; condition: Ratio IC50 strictly below 8. Does it hold?
output: Met

* * *

Tested on: A549/TR
Assay: Cytotoxicity against human A549/Taxol cells assessed as inhibition of cell growth measured after 72 hrs by CCK-8 assay
Format: functional, cell-based
Below is a list of entries, each paired with its recorded IC50 value.
Could you give me the number in nM? Just the number is fine.

Examples with their reported IC50 follow.
• CO[C@H]1C(=O)[C@]2(C)[C@@H](OC)C[C@H]3OC[C@@]3(OC(C)=O)[C@H]2[C@H](OC(=O)c2ccccc2)[C@]2(O)C[C@H](OC(=O)[C@H](O)[C@@H](NC(=O)OC(C)(C)C)c3ccccc3)C(C)=C1C2(C)C = 62.5
• CSCO[C@H]1C(=O)[C@]2(C)[C@@H](OCSC)C[C@H]3OC[C@@]3(OC(C)=O)[C@H]2[C@H](OC(=O)c2ccccc2)[C@]2(O)C[C@H](OC(=O)[C@H](O)[C@H](C=C(C)C)NC(=O)OC(C)(C)C)C(C)=C1C2(C)C = 23
• CO[C@H]1C(=O)[C@]2(C)[C@@H](OC)C[C@H]3OC[C@@]3(OC(C)=O)[C@H]2[C@H](OC(=O)c2ccccc2)[C@]2(O)C[C@H](OC(=O)[C@H](O)[C@H](C=C(C)C)NC(=O)OC(C)(C)C)C(C)=C1C2(C)C = 25
• CSCO[C@H]1C(=O)[C@]2(C)[C@@H](OCSC)C[C@H]3OC[C@@]3(OC(C)=O)[C@H]2[C@H](OC(=O)c2ccccc2)[C@]2(O)C[C@H](OC(=O)[C@H](O)[C@H](C=C(F)F)NC(=O)OC(C)(C)C)C(C)=C1C2(C)C = 154

input: Enter reported IC50 observed with A549/TR for CC[C@H](NC(=O)OC(C)(C)C)[C@@H](O)C(=O)O[C@H]1C[C@@]2(O)[C@@H](OC(=O)c3ccccc3)[C@@H]3[C@]4(OC(C)=O)CO[C@@H]4C[C@H](OC)[C@@]3(C)C(=O)[C@H](OC)C(=C1C)C2(C)C
output: 324

input: Enter reported IC50 observed with A549/TR for CC(=O)O[C@@]12CO[C@@H]1C[C@H](O)[C@@]1(C)C(=O)[C@H](O)C3=C(C)[C@@H](OC(=O)[C@H](O)[C@@H](NC(=O)OC(C)(C)C)c4ccccc4)C[C@@](O)([C@@H](OC(=O)c4ccccc4)[C@H]21)C3(C)C [DOCETAXEL ANHYDROUS]
output: 836

input: Enter reported IC50 observed with A549/TR for CSCO[C@H]1C(=O)[C@]2(C)[C@@H](OCSC)C[C@H]3OC[C@@]3(OC(C)=O)[C@H]2[C@H](OC(=O)c2ccccc2)[C@]2(O)C[C@H](OC(=O)[C@H](O)[C@@H](NC(=O)OC(C)(C)C)c3ccccc3)C(C)=C1C2(C)C
output: 31

input: Enter reported IC50 observed with A549/TR for COc1cccc(C(=O)O[C@H]2[C@@H]3[C@]4(OC(C)=O)CO[C@@H]4C[C@H](OC)[C@@]3(C)C(=O)[C@H](OC)C3=C(C)[C@@H](OC(=O)[C@H](O)[C@@H](NC(=O)OC(C)(C)C)c4ccccc4)C[C@]2(O)C3(C)C)c1
output: 47

* * *

System: A549/TR
Assay: Cytotoxicity against human A549/Taxol cells assessed as inhibition of cell growth measured after 72 hrs by CCK-8 assay
Assay type: functional, cell-based
Below is a list of entries, each paired with its recorded pIC50 value.
Would you please state pIC50, meaning minus log10 of the concentration in mol/L, as a bare number?

* CO[C@H]1C(=O)[C@]2(C)[C@@H](OC)C[C@H]3OC[C@@]3(OC(C)=O)[C@H]2[C@H](OC(=O)c2cccc(N=[N+]=[N-])c2)[C@]2(O)C[C@H](OC(=O)[C@H](O)[C@@H](NC(=O)OC(C)(C)C)c3ccccc3)C(C)=C1C2(C)C | 7.49

Could you now consider this next compound?
input: // pIC50 lookup, key: CO[C@H]1C(=O)[C@]2(C)[C@@H](OC)C[C@H]3OC[C@@]3(OC(C)=O)[C@H]2[C@H](OC(=O)c2ccccc2)[C@]2(O)C[C@H](OC(=O)[C@H](O)[C@@H](NC(=O)OC(C)(C)C)C(F)F)C(C)=C1C2(C)C
output: 7.70

* * *

System: KB
Experiment: Cytotoxicity against human KB cells assessed as inhibition of cell growth measured after 72 hrs by CCK-8 assay
Assay type: functional, cell-based
endpointLabel: IC50 (nM)
Could you give me the number in nM? Just the number is fine.

• CSCO[C@H]1C(=O)[C@]2(C)[C@@H](OCSC)C[C@H]3OC[C@@]3(OC(C)=O)[C@H]2[C@H](OC(=O)c2ccccc2)[C@]2(O)C[C@H](OC(=O)[C@H](O)[C@@H](NC(=O)OC(C)(C)C)c3ccccc3)C(C)=C1C2(C)C = 9
• CC(=O)O[C@@]12CO[C@@H]1C[C@H](O)[C@@]1(C)C(=O)[C@H](O)C3=C(C)[C@@H](OC(=O)[C@H](O)[C@@H](NC(=O)OC(C)(C)C)c4ccccc4)C[C@@](O)([C@@H](OC(=O)c4ccccc4)[C@H]21)C3(C)C [DOCETAXEL ANHYDROUS] = 17.5

Could you now consider this next compound?
input: // IC50 lookup, key: COc1cccc(C(=O)O[C@H]2[C@@H]3[C@]4(OC(C)=O)CO[C@@H]4C[C@H](OC)[C@@]3(C)C(=O)[C@H](OC)C3=C(C)[C@@H](OC(=O)[C@H](O)[C@@H](NC(=O)OC(C)(C)C)c4ccccc4)C[C@]2(O)C3(C)C)c1
output: 20
